target: T1, human Claudin18.2 (CLDN18.2) (human, UniProt P56856 1-261); assay: FACS on GAXC031 cells, antibody at 50 µg/ml
T1 construct: the cell line is named under assay; also called human Claudine18.2; hClaudin18.2
Record form. Attribute: MAX MFI. Fill in for each entry.
One number for each entry.

BINDER	MAX MFI
chAb04 (antibody, V domains shown) VH: EVQLQQSGPELVKPGASVKMSCMASGYTFTDYNIHWVKRSHGSRLEWIGYISPISGGAGYNQKFMDKATLTVDKSSNTAYMELRSLTSEDSAVYYCTRGDYWGQGTTLTVSS VL: DIVMTQSPSSLAVTVGEKVTMSCKSSQSLLNSGNQKNYLTWYQQKPGQPPKLLIYWASTRKSGVPDRFTGSGSGTDFTLTISSVQAEDLGIYYCLNDYGFPLTFGAGSKLELK	3860

Next binder, MAX MFI to be filled in.
Input chAb30 (antibody, V domains shown) VH: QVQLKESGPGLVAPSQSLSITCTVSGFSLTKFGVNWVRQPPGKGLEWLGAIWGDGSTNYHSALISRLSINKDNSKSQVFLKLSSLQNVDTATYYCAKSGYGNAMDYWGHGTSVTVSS VL: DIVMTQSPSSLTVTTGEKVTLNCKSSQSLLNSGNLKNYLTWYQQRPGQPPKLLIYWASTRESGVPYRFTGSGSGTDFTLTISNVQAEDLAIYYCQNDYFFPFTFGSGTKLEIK . Output MAX MFI: 4460
